- Experimental protocol: Solubility study of crystal forms (aqueous HCl pH 1 / 20 mM phosphate buffer pH about 7, HPLC analysis)
- Assay type: physicochemical
- Measurement setup: aqueous hcl; pH=1, 4 h
- Experimental: The detailed parameters were as follows: An aqueous HCl solution at pH 1 was prepared. […] After dissolution by stirring, the solution was adjusted to pH = 1 with 1 N NaOH or 1 N HCl. The timing was started, and after T = 3 h, the pH was measured. […] When T = 4 h, the dissolution status was observed, and a dilution factor was selected according to the dissolution status. […] The solubility was calculated according to the HPLC analysis results described above. […]
Measured metric: solubility at 4 h (mg/mL)
The figure you give is taken to be in mg/mL; do not add the unit.

*Q* Using the record for COC(=O)[C@H](c1ccccc1Cl)N1CC[C@@H](SCOC(=O)OC(C)C)/C(=C\C(=O)O)C1 [Crystal form F1] , report its solubility at 4 h.
*A* 11.5

* * *

- Experimental protocol: Solubility study of crystal forms (aqueous HCl pH 1 / 20 mM phosphate buffer pH about 7, HPLC analysis)
- Assay type: physicochemical
- Measurement setup: 20 mm phosphate buffer; pH=7, 24 h
Measured metric: solubility at 24 h (µg/mL)
The figure you give is taken to be in µg/mL; do not add the unit.

*Q* Using the record for COC(=O)[C@H](c1ccccc1Cl)N1CC[C@@H](SCOC(=O)OC(C)C)/C(=C\C(=O)O)C1 [Crystal form F1] , report its solubility at 24 h.
*A* 6140

* * *

- Experimental protocol: Solubility study of crystal forms (aqueous HCl pH 1 / 20 mM phosphate buffer pH about 7, HPLC analysis)
- Assay type: physicochemical
- Measurement setup: aqueous hcl; pH=1, 24 h
Measured metric: solubility at 24 h (mg/mL)
The figure you give is taken to be in mg/mL; do not add the unit.

*Q* Using the record for COC(=O)[C@H](c1ccccc1Cl)N1CC[C@@H](SCOC(=O)OC(C)C)/C(=C\C(=O)O)C1 [Crystal form F1] , report its solubility at 24 h.
*A* 11.4
